# Target or test system: PDGFRβ (Homo sapiens, UniProt P09619)
# Sequence (P09619 33-1106): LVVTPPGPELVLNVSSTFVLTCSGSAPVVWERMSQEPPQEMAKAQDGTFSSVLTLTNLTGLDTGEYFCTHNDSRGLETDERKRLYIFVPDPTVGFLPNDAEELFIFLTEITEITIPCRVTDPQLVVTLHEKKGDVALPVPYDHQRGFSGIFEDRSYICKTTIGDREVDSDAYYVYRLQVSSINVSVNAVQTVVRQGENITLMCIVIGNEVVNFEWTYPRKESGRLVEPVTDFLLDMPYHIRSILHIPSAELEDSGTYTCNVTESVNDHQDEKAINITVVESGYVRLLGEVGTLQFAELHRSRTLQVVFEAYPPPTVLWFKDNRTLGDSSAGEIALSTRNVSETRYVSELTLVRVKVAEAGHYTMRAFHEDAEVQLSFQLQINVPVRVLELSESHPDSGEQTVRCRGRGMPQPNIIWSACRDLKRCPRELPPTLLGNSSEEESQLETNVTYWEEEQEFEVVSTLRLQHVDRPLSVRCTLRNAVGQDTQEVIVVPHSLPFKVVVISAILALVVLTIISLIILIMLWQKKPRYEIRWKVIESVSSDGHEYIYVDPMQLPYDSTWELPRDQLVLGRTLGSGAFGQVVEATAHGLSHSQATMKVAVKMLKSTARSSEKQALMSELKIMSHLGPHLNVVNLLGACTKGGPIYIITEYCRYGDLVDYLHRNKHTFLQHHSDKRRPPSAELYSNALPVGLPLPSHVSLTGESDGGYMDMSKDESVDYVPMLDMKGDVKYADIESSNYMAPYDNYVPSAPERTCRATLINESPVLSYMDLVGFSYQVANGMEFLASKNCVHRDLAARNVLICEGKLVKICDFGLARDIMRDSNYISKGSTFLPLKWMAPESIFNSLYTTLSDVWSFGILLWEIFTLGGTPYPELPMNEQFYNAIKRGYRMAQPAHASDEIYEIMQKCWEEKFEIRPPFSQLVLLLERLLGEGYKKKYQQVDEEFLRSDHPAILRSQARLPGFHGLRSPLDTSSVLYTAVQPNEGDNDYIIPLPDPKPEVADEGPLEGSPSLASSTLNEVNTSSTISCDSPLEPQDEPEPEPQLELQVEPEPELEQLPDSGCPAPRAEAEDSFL
# Procedure summary: Off-chip mobility-shift kinase assay (Caliper LABCHIP), PDGFR
# Test context: concentration 3.0E−09
Measured parameter: PDGFR AVG % Activity at 3.0E−09 (%)

# Compound, Target or test system, PDGFR AVG % Activity at 3.0E−09 [%]
measured = [
    ("COCCOCCOCCOCCOCCNCc1ccc(C(=O)Nc2ccc(C)c(Nc3nccc(-c4cccnc4)n3)c2)cc1 [mPEG5-N-Imatinib]", "PDGFRβ (Homo sapiens, UniProt P09619)", 100),
    ("COCCOCCOCCOCCOCCOCCOCCN1CCN(Cc2ccc(C(=O)Nc3ccc(C)c(Nc4nccc(-c5cccnc5)n4)c3)cc2)CC1 [mPEG7-N′-Imatinib]", "PDGFRβ (Homo sapiens, UniProt P09619)", 93),
    ("COCCOCCOCCOCCOCCOCCOCCNCc1ccc(C(=O)Nc2ccc(C)c(Nc3nccc(-c4cccnc4)n3)c2)cc1", "PDGFRβ (Homo sapiens, UniProt P09619)", 99),
    ("COCCOCCOCCOCCOCCOCCOCCOCCOCCNCc1ccc(C(=O)Nc2ccc(C)c(Nc3nccc(-c4cccnc4)n3)c2)cc1 [mPEG9-N-Imatinib]", "PDGFRβ (Homo sapiens, UniProt P09619)", 100),
    ("COCCOCCOCCOCCOCCOCCOCCOCCOCCN1CCN(Cc2ccc(C(=O)Nc3ccc(C)c(Nc4nccc(-c5cccnc5)n4)c3)cc2)CC1 [mPEG9-N′-Imatinib]", "PDGFRβ (Homo sapiens, UniProt P09619)", 100),
]

---

# Procedure summary: Thermodynamic solubility
# Assay type: physicochemical
# Test context: aqueous buffer, thermodynamic from solid; phosphate buffered saline, pH 7.4; ambient temperature overnight
Measured parameter: solubility (µg/mL)

a. COCCOCCOCCOCCOCCOCCOCCN1CCN(Cc2ccc(C(=O)Nc3ccc(C)c(Nc4nccc(-c5cccnc5)n4)c3)cc2)CC1 [mPEG7-N′-Imatinib]
b. COCCOCCOCCN1CCN(Cc2ccc(C(=O)Nc3ccc(C)c(Nc4nccc(-c5cccnc5)n4)c3)cc2)CC1 [mPEG3-N′-Imatinib]
Hi there! Just curious which has the higher solubility between a and b . The response must carry the label of the picked entry.
a
(a: 3000 µg/mL, b: 500 µg/mL)

---

# Target or test system: ABL (Homo sapiens, UniProt P00519)
# Sequence (P00519 whole entry): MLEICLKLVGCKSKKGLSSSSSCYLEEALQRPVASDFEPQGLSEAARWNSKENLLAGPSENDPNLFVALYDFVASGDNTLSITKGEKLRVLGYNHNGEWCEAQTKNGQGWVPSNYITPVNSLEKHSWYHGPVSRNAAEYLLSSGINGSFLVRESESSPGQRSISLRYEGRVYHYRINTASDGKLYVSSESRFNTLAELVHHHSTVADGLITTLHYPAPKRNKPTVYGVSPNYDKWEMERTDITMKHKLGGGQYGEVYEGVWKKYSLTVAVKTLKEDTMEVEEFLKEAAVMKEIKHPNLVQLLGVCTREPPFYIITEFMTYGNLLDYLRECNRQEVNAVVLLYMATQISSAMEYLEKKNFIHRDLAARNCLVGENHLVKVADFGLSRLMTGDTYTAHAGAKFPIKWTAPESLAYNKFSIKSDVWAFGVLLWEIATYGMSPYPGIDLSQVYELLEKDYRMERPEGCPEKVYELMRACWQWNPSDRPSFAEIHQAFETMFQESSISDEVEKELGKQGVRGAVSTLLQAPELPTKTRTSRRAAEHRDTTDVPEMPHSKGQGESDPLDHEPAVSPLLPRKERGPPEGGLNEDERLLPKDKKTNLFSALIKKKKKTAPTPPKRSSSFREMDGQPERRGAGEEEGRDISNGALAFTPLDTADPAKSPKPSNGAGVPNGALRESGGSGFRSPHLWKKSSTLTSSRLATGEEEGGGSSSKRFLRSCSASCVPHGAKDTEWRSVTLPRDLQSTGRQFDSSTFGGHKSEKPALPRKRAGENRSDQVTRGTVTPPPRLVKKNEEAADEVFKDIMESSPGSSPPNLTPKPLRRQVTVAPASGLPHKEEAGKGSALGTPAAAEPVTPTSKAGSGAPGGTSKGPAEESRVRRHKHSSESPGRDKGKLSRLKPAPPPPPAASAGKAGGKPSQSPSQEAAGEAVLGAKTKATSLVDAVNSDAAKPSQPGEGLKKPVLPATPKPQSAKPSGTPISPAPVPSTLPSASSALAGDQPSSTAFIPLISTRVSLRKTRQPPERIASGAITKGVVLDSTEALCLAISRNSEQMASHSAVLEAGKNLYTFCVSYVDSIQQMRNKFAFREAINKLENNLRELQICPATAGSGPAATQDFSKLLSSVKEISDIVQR
# Procedure summary: Off-chip mobility-shift kinase assay (Caliper LABCHIP), ABL
# Test context: concentration 3.0E−09; dasatinib-corresponding compounds
Measured parameter: ABL AVG % Activity at 3.0E−09 (%)

# Compound, ABL AVG % Activity at 3.0E−09 [%]
measured = [
    ("COCCOCCOCCOCCOCCOCCOCCOCCOCCNC(=O)OCCN1CCN(c2cc(Nc3ncc(C(=O)Nc4c(C)cccc4Cl)s3)nc(C)n2)CC1 [mPEG9-NHCOO-Dasatinib]", "−1"),
    ("COCCOCCOCCOCC(=O)NC(CC(C)C)C(=O)OCCN1CCN(c2cc(Nc3ncc(C(=O)Nc4c(C)cccc4Cl)s3)nc(C)n2)CC1 (centres unmarked) [mPEG3-Leu-Dasatinib]", 1),
    ("COCCOCCOCCOCCOCCOCCOCCNC(=O)OCCN1CCN(c2cc(Nc3ncc(C(=O)Nc4c(C)cccc4Cl)s3)nc(C)n2)CC1 [mPEG7-NHCOO-Dasatinib]", "−1"),
]

a. COCCOCCOCCOCCOCCNC(=O)OCCN1CCN(c2cc(Nc3ncc(C(=O)Nc4c(C)cccc4Cl)s3)nc(C)n2)CC1 [mPEG5-NHCOO-Dasatinib]
b. COCCOCCOCCOCC(=O)NC(C(=O)OCCN1CCN(c2cc(Nc3ncc(C(=O)Nc4c(C)cccc4Cl)s3)nc(C)n2)CC1)C(C)C (centres unmarked) [mPEG3-Val-Dasatinib]
Sort a and b by ABL AVG % Activity at 3.0E−09 descending and give the first. Indicate your choice by writing its label.
b

---

# Target or test system: UniProt:P09619
# Procedure summary: Off-chip mobility-shift kinase assay (Caliper LABCHIP), PDGFR
# Test context: concentration 3.0E−07
Measured parameter: PDGFR AVG % Activity at 3.0E−07 (%)

# Smi, Measured parameter, Observed result
rows = [
    ("COCCOCCOCCOCCOCCOCCOCCOCCOCCNCc1ccc(C(=O)Nc2ccc(C)c(Nc3nccc(-c4cccnc4)n3)c2)cc1", "PDGFR AVG % Activity at 3.0E−07", 38),
    ("COCCOCCOCCOCCOCCOCCOCCN1CCN(Cc2ccc(C(=O)Nc3ccc(C)c(Nc4nccc(-c5cccnc5)n4)c3)cc2)CC1", "PDGFR AVG % Activity at 3.0E−07", 43),
    ("COCCOCCOCCOCCOCCOCCOCCNCc1ccc(C(=O)Nc2ccc(C)c(Nc3nccc(-c4cccnc4)n3)c2)cc1", "PDGFR AVG % Activity at 3.0E−07", 39),
    ("COCCOCCOCCOCCOCCOCCOCCOCCOCCN1CCN(Cc2ccc(C(=O)Nc3ccc(C)c(Nc4nccc(-c5cccnc5)n4)c3)cc2)CC1", "PDGFR AVG % Activity at 3.0E−07", 48),
    ("COCCOCCOCCOCCOCCNCc1ccc(C(=O)Nc2ccc(C)c(Nc3nccc(-c4cccnc4)n3)c2)cc1", "PDGFR AVG % Activity at 3.0E−07", 37),
]

---

# Target or test system: PDGFRβ (Homo sapiens)
# Procedure summary: Off-chip mobility-shift kinase assay (Caliper LABCHIP), PDGFR
# Test context: concentration 1.0E−09
Measured parameter: PDGFR AVG % Activity at 1.0E−09 (%)

# Smi, PDGFR AVG % Activity at 1.0E−09 / %
rows = [
    ("COCCOCCOCCOCCOCCOCCOCCNCc1ccc(C(=O)Nc2ccc(C)c(Nc3nccc(-c4cccnc4)n3)c2)cc1", 93),
    ("COCCOCCOCCOCCOCCOCCOCCOCCOCCNCc1ccc(C(=O)Nc2ccc(C)c(Nc3nccc(-c4cccnc4)n3)c2)cc1", 78),
    ("COCCOCCOCCOCCOCCOCCOCCN1CCN(Cc2ccc(C(=O)Nc3ccc(C)c(Nc4nccc(-c5cccnc5)n4)c3)cc2)CC1", 98),
    ("COCCOCCOCCOCCOCCOCCOCCOCCOCCN1CCN(Cc2ccc(C(=O)Nc3ccc(C)c(Nc4nccc(-c5cccnc5)n4)c3)cc2)CC1", 99),
    ("COCCOCCOCCOCCOCCNCc1ccc(C(=O)Nc2ccc(C)c(Nc3nccc(-c4cccnc4)n3)c2)cc1", 90),
]

---

# Target or test system: PDGFRβ (Homo sapiens)
# Procedure summary: Off-chip mobility-shift kinase assay (Caliper LABCHIP), PDGFR
# Test context: concentration 1.0E−08
Measured parameter: PDGFR AVG % Activity at 1.0E−08 (%)

# Smi, PDGFR AVG % Activity at 1.0E−08 (%)
data = [
    ("COCCOCCOCCOCCOCCOCCOCCOCCOCCN1CCN(Cc2ccc(C(=O)Nc3ccc(C)c(Nc4nccc(-c5cccnc5)n4)c3)cc2)CC1", 95),
    ("COCCOCCOCCOCCOCCOCCOCCN1CCN(Cc2ccc(C(=O)Nc3ccc(C)c(Nc4nccc(-c5cccnc5)n4)c3)cc2)CC1", 91),
    ("COCCOCCOCCOCCOCCOCCOCCNCc1ccc(C(=O)Nc2ccc(C)c(Nc3nccc(-c4cccnc4)n3)c2)cc1", 96),
    ("COCCOCCOCCOCCOCCNCc1ccc(C(=O)Nc2ccc(C)c(Nc3nccc(-c4cccnc4)n3)c2)cc1", 94),
    ("COCCOCCOCCOCCOCCOCCOCCOCCOCCNCc1ccc(C(=O)Nc2ccc(C)c(Nc3nccc(-c4cccnc4)n3)c2)cc1", 83),
]

---

# Target or test system: ABL (Homo sapiens)
# Procedure summary: Off-chip mobility-shift kinase assay (Caliper LABCHIP), ABL
pIC50: −log10 of the molar value.
Reported values of pIC50 for individual entries

// worked examples, pIC50 included
# Smi, Observed result
rows = [
    ("COCCOCCOCCOCCOCCNCc1ccc(C(=O)Nc2ccc(C)c(Nc3nccc(-c4cccnc4)n3)c2)cc1", "≤ 5.52"),
    ("COCCOCCOCCOCCOCCOCCOCCOCCOCCNCc1ccc(C(=O)Nc2ccc(C)c(Nc3nccc(-c4cccnc4)n3)c2)cc1", "≤ 5.52"),
]

Would you mind telling me what pIC50 value was observed for "COCCOCCOCCOCCOCCOCCOCCN1CCN(Cc2ccc(C(=O)Nc3ccc(C)c(Nc4nccc(-c5cccnc5)n4)c3)cc2)CC1" ?
≤ 5.52
